biological target: UniProt:P07374
Sequence (P07374 whole entry): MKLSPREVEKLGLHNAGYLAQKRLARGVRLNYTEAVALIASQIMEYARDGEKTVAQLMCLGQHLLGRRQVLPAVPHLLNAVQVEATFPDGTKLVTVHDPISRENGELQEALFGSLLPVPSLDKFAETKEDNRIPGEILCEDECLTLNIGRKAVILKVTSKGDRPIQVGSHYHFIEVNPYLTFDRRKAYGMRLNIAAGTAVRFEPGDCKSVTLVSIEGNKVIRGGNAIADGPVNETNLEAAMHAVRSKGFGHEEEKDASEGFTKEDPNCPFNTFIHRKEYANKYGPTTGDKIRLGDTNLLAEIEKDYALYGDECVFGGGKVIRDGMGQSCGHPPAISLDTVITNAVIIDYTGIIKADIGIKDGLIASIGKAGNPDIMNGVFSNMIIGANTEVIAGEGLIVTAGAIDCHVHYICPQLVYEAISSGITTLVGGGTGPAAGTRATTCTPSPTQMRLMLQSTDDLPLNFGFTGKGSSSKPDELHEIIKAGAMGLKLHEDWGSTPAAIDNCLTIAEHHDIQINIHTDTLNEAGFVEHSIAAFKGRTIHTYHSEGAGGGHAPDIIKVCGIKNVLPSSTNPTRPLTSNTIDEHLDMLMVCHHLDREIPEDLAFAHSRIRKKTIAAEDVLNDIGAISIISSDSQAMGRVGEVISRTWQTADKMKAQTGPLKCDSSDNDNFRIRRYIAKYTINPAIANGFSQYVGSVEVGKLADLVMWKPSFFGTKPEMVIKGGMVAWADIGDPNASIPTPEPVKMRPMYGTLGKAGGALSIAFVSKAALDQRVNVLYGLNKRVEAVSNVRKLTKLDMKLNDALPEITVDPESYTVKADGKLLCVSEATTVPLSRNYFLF
pIC50: −log10 of the molar value.

{"compound": "CC(=O)NO [AHA, acetohydroxamic acid]", "assay_target": "UniProt:P07374", "pIC50": 5.37}
